For reference, pIC50 measured on mTOR (human) (Homo sapiens (Human)):
pIC50: −log10 of the molar value.

Example compounds with recorded pIC50:
{"STRUCTURE_STRING": "COc1cc2ncc3c(c2cc1-c1cnn(C)c1)n(-c1ncc(F)cc1F)c(=O)n3C", "SYSTEM_NAME": "mTOR (human) (Homo sapiens (Human))", "pIC50": "< 4.52"}
{"STRUCTURE_STRING": "CCn1cc(-c2cc3c(cc2OC)ncc2c3n(-c3ccncc3F)c(=O)n2C)cn1", "SYSTEM_NAME": "mTOR (human) (Homo sapiens (Human))", "pIC50": "< 4.52"}

Bench note: what pIC50 did COc1cc2ncc3c(c2cc1-c1cnn(C)c1)n(-c1cncnc1)c(=O)n3C show?
< 4.52

* * *

molecular target: purified human recombinant ATM (ataxia telangiectasia mutated), full length (Homo sapiens (Human), UniProt Q13315); test: ATM kinase assay - determination of ATM inhibition (IC50 ATM), TR-FRET; type: biochemical
Sequence (Q13315 whole entry, change not shown): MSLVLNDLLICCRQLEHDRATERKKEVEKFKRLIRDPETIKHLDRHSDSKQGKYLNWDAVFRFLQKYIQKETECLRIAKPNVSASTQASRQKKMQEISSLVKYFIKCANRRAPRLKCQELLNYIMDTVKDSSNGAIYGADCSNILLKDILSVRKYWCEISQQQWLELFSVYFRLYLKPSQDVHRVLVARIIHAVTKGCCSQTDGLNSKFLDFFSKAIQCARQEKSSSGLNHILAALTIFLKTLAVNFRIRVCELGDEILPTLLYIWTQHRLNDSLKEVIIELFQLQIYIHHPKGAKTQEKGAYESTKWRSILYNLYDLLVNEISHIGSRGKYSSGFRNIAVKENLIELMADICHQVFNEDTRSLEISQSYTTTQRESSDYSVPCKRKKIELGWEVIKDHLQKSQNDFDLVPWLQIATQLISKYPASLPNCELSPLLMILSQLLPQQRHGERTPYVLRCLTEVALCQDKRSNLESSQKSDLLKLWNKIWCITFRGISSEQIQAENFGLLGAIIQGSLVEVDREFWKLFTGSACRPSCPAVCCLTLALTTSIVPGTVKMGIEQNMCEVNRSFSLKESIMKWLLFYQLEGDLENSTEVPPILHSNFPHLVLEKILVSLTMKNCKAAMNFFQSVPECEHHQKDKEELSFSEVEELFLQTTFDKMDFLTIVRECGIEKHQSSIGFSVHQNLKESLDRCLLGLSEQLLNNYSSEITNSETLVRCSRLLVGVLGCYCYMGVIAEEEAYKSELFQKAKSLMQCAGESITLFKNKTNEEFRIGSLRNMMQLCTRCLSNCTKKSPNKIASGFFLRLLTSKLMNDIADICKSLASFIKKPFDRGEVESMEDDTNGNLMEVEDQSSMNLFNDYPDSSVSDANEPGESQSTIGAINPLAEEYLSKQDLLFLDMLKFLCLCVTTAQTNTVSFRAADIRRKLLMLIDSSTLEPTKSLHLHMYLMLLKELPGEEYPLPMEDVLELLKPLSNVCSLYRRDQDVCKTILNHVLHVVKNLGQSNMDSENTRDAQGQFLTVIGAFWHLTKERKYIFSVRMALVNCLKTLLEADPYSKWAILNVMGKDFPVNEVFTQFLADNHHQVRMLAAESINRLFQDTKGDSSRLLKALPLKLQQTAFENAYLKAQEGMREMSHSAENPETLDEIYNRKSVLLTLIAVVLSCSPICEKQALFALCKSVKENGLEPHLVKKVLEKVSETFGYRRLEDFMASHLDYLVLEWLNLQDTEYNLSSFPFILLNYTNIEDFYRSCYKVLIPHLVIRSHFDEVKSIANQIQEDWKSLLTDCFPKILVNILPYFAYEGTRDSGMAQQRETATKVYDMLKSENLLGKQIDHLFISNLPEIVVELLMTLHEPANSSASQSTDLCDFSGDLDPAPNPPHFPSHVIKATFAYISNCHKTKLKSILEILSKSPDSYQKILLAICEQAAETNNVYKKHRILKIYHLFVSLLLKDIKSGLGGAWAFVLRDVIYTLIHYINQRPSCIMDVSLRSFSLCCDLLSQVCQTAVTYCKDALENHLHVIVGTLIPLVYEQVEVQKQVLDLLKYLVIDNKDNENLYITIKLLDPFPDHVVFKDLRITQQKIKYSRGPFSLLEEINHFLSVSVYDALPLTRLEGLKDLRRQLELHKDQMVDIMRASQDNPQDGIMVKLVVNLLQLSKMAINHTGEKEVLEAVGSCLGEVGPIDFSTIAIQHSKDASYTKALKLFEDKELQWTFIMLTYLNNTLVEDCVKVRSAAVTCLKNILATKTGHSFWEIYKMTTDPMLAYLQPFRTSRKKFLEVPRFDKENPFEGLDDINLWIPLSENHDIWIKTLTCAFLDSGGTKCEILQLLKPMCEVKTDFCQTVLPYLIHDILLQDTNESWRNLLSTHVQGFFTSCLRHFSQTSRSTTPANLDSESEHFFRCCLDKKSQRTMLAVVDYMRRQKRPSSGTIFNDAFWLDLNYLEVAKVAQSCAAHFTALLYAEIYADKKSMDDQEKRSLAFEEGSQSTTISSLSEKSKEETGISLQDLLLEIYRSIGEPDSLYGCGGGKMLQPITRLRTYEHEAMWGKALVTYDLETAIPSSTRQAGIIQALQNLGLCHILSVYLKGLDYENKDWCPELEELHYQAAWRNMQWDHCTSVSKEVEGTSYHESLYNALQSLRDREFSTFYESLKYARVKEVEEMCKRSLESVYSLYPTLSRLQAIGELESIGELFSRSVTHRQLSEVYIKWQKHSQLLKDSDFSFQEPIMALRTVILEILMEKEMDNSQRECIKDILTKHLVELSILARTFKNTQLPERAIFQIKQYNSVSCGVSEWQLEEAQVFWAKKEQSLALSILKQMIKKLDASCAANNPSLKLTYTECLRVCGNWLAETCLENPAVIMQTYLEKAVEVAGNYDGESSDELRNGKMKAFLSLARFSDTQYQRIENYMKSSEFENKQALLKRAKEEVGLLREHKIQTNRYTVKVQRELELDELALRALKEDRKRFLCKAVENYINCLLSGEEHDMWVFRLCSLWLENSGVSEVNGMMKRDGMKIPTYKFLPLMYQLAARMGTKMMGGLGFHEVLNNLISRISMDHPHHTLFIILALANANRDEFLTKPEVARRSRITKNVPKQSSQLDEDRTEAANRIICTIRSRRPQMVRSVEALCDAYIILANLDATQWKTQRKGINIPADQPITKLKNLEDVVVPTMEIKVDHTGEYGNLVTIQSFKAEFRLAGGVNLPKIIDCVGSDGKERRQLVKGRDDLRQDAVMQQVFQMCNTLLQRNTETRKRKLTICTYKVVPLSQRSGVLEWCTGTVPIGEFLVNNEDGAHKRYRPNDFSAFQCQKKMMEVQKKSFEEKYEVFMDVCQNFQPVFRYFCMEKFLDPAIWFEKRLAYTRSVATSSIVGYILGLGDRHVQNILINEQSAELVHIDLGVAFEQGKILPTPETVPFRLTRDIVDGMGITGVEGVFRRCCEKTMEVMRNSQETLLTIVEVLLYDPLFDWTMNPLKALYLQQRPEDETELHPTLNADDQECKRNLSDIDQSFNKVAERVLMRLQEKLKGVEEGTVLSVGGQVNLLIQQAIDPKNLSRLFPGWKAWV
Reported IC50 is given for each of the following compounds.

Consider the reported IC50 for these compounds:
{"COMPOUND": "COc1cc2ncc3c(c2cc1-c1cnn(C)c1)n(-c1ccncc1C#N)c(=O)n3C", "MEASUREMENT_LABEL": "IC50", "MEAS_VALUE": "< 50 nM"}
{"COMPOUND": "COc1cc2ncc3c(c2cc1-c1cn[nH]c1)n(-c1c(F)cncc1F)c(=O)n3C", "MEASUREMENT_LABEL": "IC50", "MEAS_VALUE": "< 1 nM"}
{"COMPOUND": "CCc1cncc(C)c1-n1c(=O)n(C)c2cnc3cc(OC)c(-c4cnn(C)c4)cc3c21", "MEASUREMENT_LABEL": "IC50", "MEAS_VALUE": "< 10 nM"}
{"COMPOUND": "COc1cc2ncc3c(c2cc1-c1cn[nH]c1)n(-c1ncc(C)cc1F)c(=O)n3C", "MEASUREMENT_LABEL": "IC50", "MEAS_VALUE": "< 1 nM"}
{"COMPOUND": "COc1cc2ncc3c(c2cc1-c1cnn(C)c1)n(-c1ncc(F)cc1F)c(=O)n3C", "MEASUREMENT_LABEL": "IC50", "MEAS_VALUE": "< 10 nM"}

What value of IC50 has been recorded for this entry: COc1cc2ncc3c(c2cc1-c1cnn(C)c1)n(-c1c[nH]nc1C)c(=O)n3C
< 1 nM

Recorded IC50 for COc1cc2ncc3c(c2cc1-c1cnn(C)c1)n(-c1cnn(C2CCOCC2)c1)c(=O)n3C , please?
< 10 nM

What IC50 value was documented for this compound, COc1cc2ncc3c(c2cc1-c1cnn(C)c1)n(-c1c(F)cncc1F)c(=O)n3C ?
< 1 nM

So what's the measured IC50 for this one? COc1cc2ncc3c(c2cc1-c1cnn(C)c1)n(-c1c(C)cncc1F)c(=O)n3C
< 1 nM

I'd like to know its IC50. The compound in question is COc1cc2ncc3c(c2cc1-c1cnn(C)c1)n(-c1ccncc1OC)c(=O)n3C
< 10 nM

Please give the measured IC50 for this compound: COc1cc2ncc3c(c2cc1-c1cn[nH]c1)n(-c1cnn(C)c1)c(=O)n3C
< 10 nM

Suppose we examine the compound CCc1cncc(F)c1-n1c(=O)n(C)c2cnc3cc(OC)c(-c4cnn(CC)c4)cc3c21 ; what IC50 value has been reported?
< 1 nM

* * *

Reported pIC50 by item:
biological target: purified human recombinant ATM (ataxia telangiectasia mutated), full length (Homo sapiens (Human)); experiment: ATM kinase assay - determination of ATM inhibition (IC50 ATM), TR-FRET; assay type: biochemical
pIC50: −log10 of the molar value. Structures can show the parent of a compound that is named as a salt.

These recorded examples may help you get a feel for the data.
{"COMPOUND": "CCc1cncc(C)c1-n1c(=O)n(C)c2cnc3cc(OC)c(-c4cnn(CC)c4)cc3c21", "pIC50": "> 8.00"}
{"COMPOUND": "COc1cc2ncc3c(c2cc1-c1cn(C)nc1C)n(-c1ncccc1F)c(=O)n3C", "pIC50": "> 9.00"}
{"COMPOUND": "COc1cc2ncc3c(c2cc1-c1cn[nH]c1)n(-c1ccncc1OC)c(=O)n3C", "pIC50": "> 8.00"}

So what's the measured pIC50 for this one? COc1cc2ncc3c(c2cc1-c1cnn(C)c1)n(-c1ncncc1F)c(=O)n3C [Compound Example 31, hydrochloride]
> 8.00

Find the recorded pIC50 belonging to COc1cc2ncc3c(c2cc1-c1cnn(C)c1)n(-c1cn[nH]c1)c(=O)n3C and report it.
> 8.00
